# ASSAY_SYSTEM: CSF1R (Homo sapiens, UniProt P07333)
# Sequence (P07333 20-972): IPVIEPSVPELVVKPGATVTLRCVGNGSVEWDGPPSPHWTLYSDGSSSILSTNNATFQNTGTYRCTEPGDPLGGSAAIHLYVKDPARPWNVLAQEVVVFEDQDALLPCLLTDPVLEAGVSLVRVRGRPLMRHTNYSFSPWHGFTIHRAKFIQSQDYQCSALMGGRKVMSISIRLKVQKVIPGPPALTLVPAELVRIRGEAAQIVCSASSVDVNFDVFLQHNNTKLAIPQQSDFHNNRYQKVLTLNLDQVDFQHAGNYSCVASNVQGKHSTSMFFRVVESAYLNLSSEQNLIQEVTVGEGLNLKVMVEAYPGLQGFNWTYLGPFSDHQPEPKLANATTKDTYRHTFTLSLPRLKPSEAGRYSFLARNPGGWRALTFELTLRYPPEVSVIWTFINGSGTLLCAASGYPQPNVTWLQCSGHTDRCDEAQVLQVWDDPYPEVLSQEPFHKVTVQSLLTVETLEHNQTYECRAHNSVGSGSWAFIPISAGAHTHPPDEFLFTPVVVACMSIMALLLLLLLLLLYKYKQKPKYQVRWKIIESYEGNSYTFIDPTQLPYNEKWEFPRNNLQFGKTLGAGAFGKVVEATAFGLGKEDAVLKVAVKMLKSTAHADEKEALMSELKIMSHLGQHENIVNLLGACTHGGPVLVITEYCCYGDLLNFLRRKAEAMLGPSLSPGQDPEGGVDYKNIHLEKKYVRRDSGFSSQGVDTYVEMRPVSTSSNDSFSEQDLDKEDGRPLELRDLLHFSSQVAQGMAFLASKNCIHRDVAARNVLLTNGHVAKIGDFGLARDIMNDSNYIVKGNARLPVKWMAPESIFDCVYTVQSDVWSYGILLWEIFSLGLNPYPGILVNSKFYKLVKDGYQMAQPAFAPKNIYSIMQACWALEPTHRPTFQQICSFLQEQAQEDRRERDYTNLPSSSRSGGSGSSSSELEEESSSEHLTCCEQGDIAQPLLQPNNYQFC
# ASSAY_COMMENT: Cellular CSF1R inhibition ELISA (p-CSF1R, M-CSF-induced) using THP-1 cells
QUANTITY: IC50

Reference set (3 entries):
INSERT INTO results (compound, recorded_result) VALUES
  ('COc1cc2nccc(Oc3ccc(NC(=O)c4nn(CCN)cc4OCC(F)(F)F)cc3C)c2cc1OC [Compound 82]', '≥ 1000 nM'),
  ('COc1cc2nccc(Oc3ccc(NC(=O)c4nn(C)cc4OCC(F)(F)F)nc3)c2cc1OC [Compound 33]', '< 500 nM'),
  ('COc1cc2nccc(Oc3ccc(NC(=O)c4nn(C(C)C)c(C)c4OCC(F)(F)F)nc3)c2cc1OC [Compound 2]', '< 500 nM');

Q: Missing value: IC50, CSF1R (Homo sapiens, UniProt P07333), entry COc1cc2nccc(Oc3ccc(NC(=O)c4nn(C5CCN(C)C5)cc4OCC(F)(F)F)cc3C)c2cc1OC (stereo not drawn) [Compound 98] . Fill in?
Result: ≥ 1000 nM

Q: Lookup COc1cc2nccc(Oc3ccc(NC(=O)c4nn(C5CC5)cc4OCC4COC4)nn3)c2cc1OC [Compound 161]
Result: ≥ 1000 nM

Q: Try this compound too: COc1cc2nccc(Oc3ccc(NC(=O)c4nn(C5CC5)cc4OCCF)nc3)c2cc1OC [Compound 110]
Result: < 500 nM

Q: Let us now turn to COc1cc2nccc(Oc3ccc(NC(=O)c4nn(CC(C)C)cc4OCC(F)(F)F)c(F)c3)c2cc1OC [Compound 48]
Result: 500 to 1000 nM
